test: Bioavailability study: pharmacokinetics after single intravenous or oral dose in mouse; format: in vivo; conditions: male, CD-1, mouse, plasma, iv, 1 mg/kg, IV 1 mg/kg, individual animal
measuredMetric: C0 (ng/mL)

INSERT INTO assay_data (givensmiles, obsvalue) VALUES
  ('CO[C@@H]1CC[C@@H](CNc2ccc(S(=O)(=O)NC(=O)c3ccc(N4CCN5CC6=C(c7ccc(Cl)cc7)CC(C)(C)C[C@H]6OCCCOC[C@@H]5C4)cc3N3CCCOc4nc5[nH]ccc5cc43)cc2[N+](=O)[O-])OC1', 4010);

###

Assay: Bioavailability study: pharmacokinetics after single intravenous or oral dose in mouse
Format: in vivo
Conditions: male, CD-1, mouse, plasma, po, 1 mg/kg, PO 1 mg/kg, mean
Protocol: Studies were conducted to evaluate the pharmacokinetic profiles of Example 25 herein and Example 2 in WO 2019/040550 after single intravenous or oral dose in mouse. CD-1 mice (male) were obtained from Charles River Laboratories (Wilmington, MA). The pharmacokinetics of Example 25 herein and Example 2 in WO 2019/040550 were evaluated following single 1 mg/kg intravenous or oral doses in mouse. […]
measuredMetric: Cmax (ng/mL)

INSERT INTO measurements (givensmiles, measuredmetric, obsvalue) VALUES
  ('CO[C@@H]1CC[C@@H](CNc2ccc(S(=O)(=O)NC(=O)c3ccc(N4CCN5CC6=C(c7ccc(Cl)cc7)CC(C)(C)C[C@H]6OCCCOC[C@@H]5C4)cc3N3CCCOc4nc5[nH]ccc5cc43)cc2[N+](=O)[O-])OC1', 'Cmax', 254);
